The compounds listed here are annotated with their IC50.
Molecular target: C-C chemokine receptor type 6 (Homo sapiens) (UniProt P51684)
Assay: potency against CXCR6 with APJ panel – cell-based, beta-arrestin, DiscoveRx, uHTS hits, dose response (AID 624129)
Details: CXCR6 beta-arrestin (DiscoveRx) antagonist cell assay, CCR6, dose range 1
quantity-measured: IC50

{"compound": "COc1ccc([N+](=O)[O-])c(S(=O)(=O)c2ccc(Cl)cc2)n1", "result": "69.3 µM"}
{"compound": "CCO[C@@H]1OC(C(=O)N2CCN(Cc3ccccc3)CC2)=C[C@H](c2ccc(Br)cc2)[C@H]1CCCO", "result": "11.4 µM"}
{"compound": "C/C(=N\\NC(=O)Cc1ccc(Cl)cc1)c1ccccn1", "result": "3.22 µM"}
{"compound": "Cc1ccc(S(=O)(=O)Nc2cccc3cccnc23)cc1", "result": "7.97 µM"}
{"compound": "COc1ccc(NC(=O)/C(Cl)=C(/Cl)S(=O)Cc2ccccc2)cn1 (stereo unspecified)", "result": "5.44 µM"}
{"compound": "Oc1c(Cl)cc(Cl)c2cccnc12", "result": "2.48 µM"}
{"compound": "CCC(=O)OCOc1ccc(/C=C2/CCC(CN(C)C)C2=O)cc1 (stereo unspecified)", "result": "10.3 µM"}
{"compound": "O=Cc1s/c(=N\\S(=O)(=O)c2ccccc2)n(CCCCl)c1Cl", "result": "2.79 µM"}
{"compound": "CC(C)N=C1CCCC1C(=S)SSC(=S)C1CCCC1=NC(C)C (stereo unspecified)", "result": "9.02 µM"}
{"compound": "COc1cc(/C=C/c2ccc3c(Br)cc(Br)c(O)c3n2)ccc1O", "result": "12.6 µM"}
{"compound": "COc1ccc(OC)c(/C=C/c2ccc3cccc(O)c3n2)c1", "result": "3.73 µM"}

---

Molecular target: Apelin receptor (Homo sapiens) (UniProt P35414)
Assay: potency against CXCR6 with APJ panel – cell-based, beta-arrestin, DiscoveRx, uHTS hits, dose response (AID 624129)
Details: CXCR6 beta-arrestin (DiscoveRx) antagonist cell assay, APJ, run 2, dose range 1
quantity-measured: log10(IC50) (log10 of the value in µM)

{"chemical-smiles": "CC(=O)/C(=N\\Nc1ccc(Cl)cc1Cl)Sc1cccc2cccnc12", "tested-target": "Apelin receptor (Homo sapiens) (UniProt P35414)", "log10(IC50)": 0.56}
{"chemical-smiles": "Cc1ccsc1/C=C/c1ccc2cccc(O)c2n1", "tested-target": "Apelin receptor (Homo sapiens) (UniProt P35414)", "log10(IC50)": 0.99}
{"chemical-smiles": "Cc1ccnc(N2C(=O)c3cccc4c([N+](=O)[O-])ccc(c34)C2=O)c1", "tested-target": "Apelin receptor (Homo sapiens) (UniProt P35414)", "log10(IC50)": 0.74}
{"chemical-smiles": "CC1(C)CC(=O)C(C=Nc2ccc(C(=O)c3ccccc3)cc2N=CC2=C(O)CC(C)(C)CC2=O)=C(O)C1", "tested-target": "Apelin receptor (Homo sapiens) (UniProt P35414)", "log10(IC50)": 1.80}
{"chemical-smiles": "C/C(=N/NC(=O)c1ccc(C(C)(C)C)cc1)c1ccccn1", "tested-target": "Apelin receptor (Homo sapiens) (UniProt P35414)", "log10(IC50)": 0.22}

Attribution: PubChem BioAssay AID624129
